- Test system: SF-539
- assay-comment: NCI tumour cell line growth inhibition, 48 h
Activity calls are given as the source filed them. Cut-off read from the data, not from the text of the source: active = GI50 up to about 1.1 µM and inactive = higher.

| compound | experimental-target | GI50 |
| --- | --- | --- |
| OCCN1CN(c2nc(N3CN(CCO)C3)nc(N3CN(CCO)C3)n2)C1 | SF-539 | 18.2 µM (inactive) |
| NCC1(N2CCOCC2)C2CCCC21CNc1ccccc1 (stereo unspecified) | SF-539 | > 100 µM (inactive) |
| COc1ccc2c(c1)CC1(O)COc3cc(OC)ccc3C1O2 (stereo unspecified) | SF-539 | > 100 µM (inactive) |
| CCOC(=O)c1c(SC(=O)c2ccc(C(C)(C)C)cc2)n(-c2ccccc2)c(=S)n(-c2ccccc2)c1=O | SF-539 | > 100 µM (inactive) |
| Cn1c(=O)cc(NCc2ccc(Cl)cc2)[nH]c1=O | SF-539 | 32.4 µM (inactive) |
| O[C@@H]1C[C@H](Cl)c2c(Cl)sc(Cl)c21 | SF-539 | > 100 µM (inactive) |
| COC(=O)CC(NC(=O)OCc1ccccc1)C(C(C)=O)C(=O)OCc1ccccc1 (stereo unspecified) | SF-539 | > 31.6 µM (inactive) |
| C=C1C(=O)C23CC1CCC2C12CO[C@H](O)[C@H]1C(C)(C)[C@H](OC(C)=O)C[C@H]2OC3=O (stereo partly specified) | SF-539 | 20 µM (inactive) |
| O=C1C=CC(=O)c2ccc(=O)ccc21 | SF-539 | 21.8 µM (inactive) |
| COc1ccc(NC(=O)CC/C(CC(=O)C(C)(C)C)=N\NC(=O)C(N)=O)cc1 | SF-539 | > 100 µM (inactive) |
| Cc1n[nH]c(N)c1C(N)=O | SF-539 | > 100 µM (inactive) |

----------
- Test system: OVCAR-5
- assay-comment: NCI tumour cell line growth inhibition, 48 h
Active and inactive are the calls of the source. Rule as the data show it: active = GI50 up to about 1.1 µM and inactive = higher.
Catalogue of GI50 values

| molecule | GI50 |
| --- | --- |
| CCCOc1nc(N)c2cnn(C3CCCCO3)c2n1 (centres undefined) | > 100 µM (inactive) |
| Cc1ccc(S(=O)(=O)N/N=C(/CC(=O)c2c(C)[n+]([O-])c3ccccc3[n+]2[O-])C(=O)Nc2ccc(C)c(C)c2)cc1 | 88.7 µM (inactive) |
| O=C(N/C(=C\c1cccc([N+](=O)[O-])c1)c1nc2c(O)nc(S)nc2[nH]1)c1ccccc1 | > 100 µM (inactive) |
| CCn1c2nc(=O)n(CCCCCCCCSC(c3ccccc3)(c3ccccc3)c3ccccc3)c(=O)c-2nc2ccccc21 | > 100 µM (inactive) |

----------
- Tested on: RPMI-8226
- assay-comment: NCI tumour cell line growth inhibition, 48 h
The source made the active and inactive calls. Cut-off read from the data, not from the text of the source: active = GI50 up to about 1.1 µM and inactive = higher.
Possible outcomes: Yes for active, No for inactive

| compound | group-label |
| --- | --- |
| CCC/C(Cl)=N\OC(=O)Nc1cccc(C(F)(F)F)c1 | No |
| Cc1ccc(N(C(=O)CC(=O)NN)C(=O)c2ccccc2Cl)cc1 | No |
| C1=CC2=CC=CC3c4nc5ccc6ccccc6c5nc4C(=C1)C23 (stereo unspecified) | No |
| CN(C)c1ccc(C(=O)NCCCCCCC(=O)NO)cc1 | Yes |
| CN(c1n[n+]2c(-c3ccccc3)csc2s1)c1n[n+]2c(-c3ccccc3)csc2s1 | No |
| c1ccc(CNCCCNCCCCNCCCNCc2ccccc2)cc1 | No |
| CC1C[C@]2(C)C(NCCN)=Nc3ccccc3[C@@H]2N(C)c2ccccc21 (stereo partly specified) | No |
| CCOC(=O)/C(C(N)=O)=C(/O)c1cnccn1 | No |
| O[C@@H]1C[C@H](Cl)c2c(Cl)sc(Cl)c21 | No |
| COc1ccc(CCNC(=O)c2ccccc2C2c3ccc(OCc4ccccc4)cc3Oc3cc(OCc4ccccc4)ccc32)cc1OC | No |
| CS(=O)(=O)Nc1ccc(NCc2c[nH]c3ccc4ncccc4c23)cc1 | No |
